Reference source: patent US5700819A

Molecular target: Aldose reductase (Sus scrofa, UniProt P80276)
pIC50: −log10 of the molar value.
Listed here: items and their measured pIC50.
property_name: pIC50

compound_smiles=O=C(O)CN(Cc1ccccc1)C(=O)CCc1nc2c(F)c(F)cc(F)c2s1 property_name=pIC50 quantitative_result=8.01
compound_smiles=O=C(O)Cc1ccccc1Cc1nc2c(F)c(F)cc(F)c2s1 property_name=pIC50 quantitative_result=7.72
compound_smiles=CN(C)c1cc(CC(=O)O)cc(Cc2nc3c(F)c(F)cc(F)c3s2)c1 property_name=pIC50 quantitative_result=8.17
compound_smiles=O=C(O)CN(Cc1ccccc1)C(=S)CCc1nc2c(F)c(F)cc(F)c2s1 property_name=pIC50 quantitative_result=7.64
compound_smiles=CN(CC(=O)O)C(=O)CCc1nc2c(F)c(F)cc(F)c2s1 property_name=pIC50 quantitative_result=7.89
compound_smiles=O=C(O)Cc1cccc(Cc2nc3c(Cl)c(Cl)ccc3s2)c1 property_name=pIC50 quantitative_result=7.92
